Catalogue of compounds with associated IC50
- target-system: LdGSK-3 (Leishmania donovani, UniProt A6N857)
- Sequence (A6N857 entry or part of it): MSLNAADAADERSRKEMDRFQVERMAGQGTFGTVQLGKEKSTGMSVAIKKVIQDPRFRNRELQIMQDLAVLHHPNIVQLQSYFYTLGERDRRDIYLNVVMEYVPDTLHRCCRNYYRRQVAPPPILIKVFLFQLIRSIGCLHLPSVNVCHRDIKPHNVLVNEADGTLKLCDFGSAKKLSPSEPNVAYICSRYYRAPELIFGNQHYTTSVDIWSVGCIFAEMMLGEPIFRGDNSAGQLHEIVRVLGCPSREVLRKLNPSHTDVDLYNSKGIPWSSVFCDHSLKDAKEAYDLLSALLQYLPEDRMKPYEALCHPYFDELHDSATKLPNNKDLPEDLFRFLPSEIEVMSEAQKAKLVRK
- assay-method-text: Inhibition of LdGSK-3 with Kinase Glo
- Format: biochemical
- setup-conditions: Table 2; read-out: LdGSK-3 IC50
value-kind: IC50 (nM)

>>> endpoint_value("CN(C)Cc1cccc(Nc2nccc(-c3ccc(NCCN)c(C#N)c3)n2)c1 [Compound 119]")
270
>>> endpoint_value("N#Cc1cc(-c2ccnc(Nc3cccc(CN4CCOCC4)c3)n2)ccc1NCCN [Compound 128]")
1700
>>> endpoint_value("CC(=O)Nc1ccc(-c2cnc(N)c(-c3nc4ccc(F)cc4[nH]3)c2)cc1 [Compound 187]")
9100
>>> endpoint_value("COc1ccc(Nc2nccc(N(C)c3n[nH]c4c(F)cccc34)n2)cc1S(C)(=O)=O [Compound 95]")
460
>>> endpoint_value("Cc1ccc(S(C)(=O)=O)cc1Nc1nccc(-c2sc(N)nc2-c2ccccc2)n1 [Compound 124]")
6000
>>> endpoint_value("CN(C)S(=O)(=O)c1ccc(-c2cnc(N)c(-c3nc4ccc(F)cc4[nH]3)c2)cc1 [Compound 71]")
3600
>>> endpoint_value("O=S(=O)(c1cccc(CSc2nnc(-c3ccc4c(c3)OCO4)o2)c1)N1CCOCC1 [Compound 151]")
2540

====

Parameter % inhibition @ 10µM (initial screening on LdGSK3): see the listing below.
- target-system: LdGSK-3 (Leishmania donovani)
- assay-method-text: Inhibition of LdGSK-3 with Kinase Glo
- Assay type: biochemical
- setup-conditions: Table S2; 10 µM
value-kind: % inhibition @ 10µM (initial screening on LdGSK3)

>>> endpoint_value("COc1ccccc1C(=O)Nc1nnc(-c2ccc3c(c2)OCO3)s1 [Compound 162]")
"9.20±3.30%"
>>> endpoint_value("Cc1ccc(S(C)(=O)=O)cc1Nc1nccc(-c2sc(N)nc2-c2ccccc2)n1 [Compound 124]")
"70.59±3.12%"
>>> endpoint_value("Cc1nc(C(=O)Nc2ccc3c(c2)OCO3)nn1-c1ccc(F)cc1 [Compound 198]")
"7.15±1.10%"
>>> endpoint_value("Cl.c1ccc(CNc2cccc3ccncc23)cc1 [Compound 126]")
"17.10±1.10%"
>>> endpoint_value("NC(=O)c1cc(NC(=O)c2ccccc2COc2ccccc2)ccc1Cl [Compound 105]")
"-0.45±1.10%"
>>> endpoint_value("Cc1nnc(-c2nc(NCc3ccc(Cl)cc3)c3cccnc3c2O)[nH]1 [Compound 31]")
"8.20±1.70%"
>>> endpoint_value("CCNc1cc(-c2ccccn2)nc(Nc2ccc(OC)cc2)n1 [Compound 45]")
"-2.50±5.50%"
>>> endpoint_value("CCN(CC)c1nc(N(C)C)nc2c1CN(Cc1ccccc1)CC2 [Compound 146]")
"11.85±0.55%"
>>> endpoint_value("COc1ccc(C2C3CCCCC3(O)CCN2CC(=O)Nc2ccc(Cl)cc2Cl)cc1 (stereo not shown) [Compound 194]")
"0.90±4.25%"
>>> endpoint_value("CCN(CC)c1nc(Nc2ccncc2)nc2ccccc12 [Compound 36]")
"7.10±1.90%"
>>> endpoint_value("Oc1c(-c2n[nH]c(Cc3ccc(F)cc3)n2)ncc2cccnc12 [Compound 102]")
"4.05±3.10%"
>>> endpoint_value("O=C(Nc1nc(-c2ccccn2)cs1)N1C[C@H]2C[C@@]2(c2ccccc2)C1 [Compound 47]")
"1.55±0.55%"
>>> endpoint_value("COCCn1c(-c2ccc3c(c2)OCO3)cnc1NCc1ccccc1OC.O=C(O)C(=O)O [Compound 164]")
"1.15±1.40%"
>>> endpoint_value("Cc1cc2cc(CNc3ccc4c(c3)OCO4)c(=O)n(CCO)c2cc1C [Compound 188]")
"20.90±4.45%"
>>> endpoint_value("CCNc1cc(-c2ccccn2)nc(Nc2ccccc2)n1 [Compound 38]")
"7.10±1.40%"
>>> endpoint_value("Cn1c(CC(=O)NNC(=O)c2ccc3ccccc3n2)nc2ccccc21 [Compound 80]")
"7.95±1.65%"
>>> endpoint_value("COc1ccc(Nc2nc(-c3ccccn3)cs2)c(OC)c1 [Compound 157]")
"4.50±4.45%"
>>> endpoint_value("CCC(=O)N1N=C(c2ccc3c(c2)CCCC3)Sc2c1ncn2C(=O)CC [Compound 127]")
"9.65±3.70%"
>>> endpoint_value("COc1ccc([N+](=O)[O-])cc1NC(=O)c1cc(Cl)ccc1O [Compound 210]")
"17.65±3.55%"
